Test system: Streptococcus pyogenes SSI-9
Experiment: Antibacterial activity assay of bead-derived peptides (three concentrations)
Type: cell-based
Parameters: key: +++: inhibition by the 640-fold diluted peptide solution; ++: inhibition by the 160-fold diluted solution; +: inhibition by the 40-fold diluted solution; -: no inhibition
Conditions: S. pyogenes, bead-derived peptide solution, three concentrations
Where a SMILES comes first, the peptide text is derived from it. [ ]: non-standard residue; d: D form. The star is where a group is joined. NHCH2CH2OH = OCCN*; For = O=C*

[
  {
    "compound": "CC(C)C[C@@H](NC(=O)[C@H](C)NC(=O)[C@H](NC(=O)[C@H](C)NC(=O)CNC(=O)[C@@H](NC=O)C(C)C)C(C)C)C(=O)N[C@H](C(=O)N[C@H](CC(C)C)C(=O)N[C@@H](Cc1c[nH]c2ccccc12)C(=O)N[C@H](CC(C)C)C(=O)N[C@@H](Cc1c[nH]c2ccccc12)C(=O)N[C@@H](C(=O)N[C@@H](Cc1c[nH]c2ccccc12)C(=O)N[C@@H](C(=O)N[C@@H](Cc1c[nH]c2ccccc12)C(=O)NCCO)[C@H](C)O)[C@H](C)O)C(C)C [compound 4322] (For-VGA[dV]A[dL]V[dL]W[dL]W[dT]W[dT]W-NHCH2CH2OH)",
    "target-or-system": "Streptococcus pyogenes SSI-9",
    "antibacterial activity": "-"
  }
]
